Consider compounds characterized by their Ki with Adenosine receptor A2a (Homo sapiens).
Sequence (P29274 whole entry): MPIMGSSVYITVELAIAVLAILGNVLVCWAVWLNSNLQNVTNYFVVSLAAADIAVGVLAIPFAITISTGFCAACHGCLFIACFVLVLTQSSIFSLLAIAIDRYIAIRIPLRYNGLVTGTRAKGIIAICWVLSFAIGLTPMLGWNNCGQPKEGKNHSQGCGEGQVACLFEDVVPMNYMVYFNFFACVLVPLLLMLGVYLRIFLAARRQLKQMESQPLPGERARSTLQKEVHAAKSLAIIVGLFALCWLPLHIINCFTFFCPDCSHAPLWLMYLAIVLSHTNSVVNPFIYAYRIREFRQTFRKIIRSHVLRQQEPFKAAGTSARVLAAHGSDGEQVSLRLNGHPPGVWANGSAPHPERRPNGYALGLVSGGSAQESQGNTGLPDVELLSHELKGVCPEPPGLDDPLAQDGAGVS
quantity_measured: Ki (nM)

A: CCOC(=O)c1nc(N)c(=O)n(-c2ccccc2)n1
B: Nc1nc(-c2ccccc2)nn1C(=O)c1ccco1
Ask: Compare A and B by numeric Ki and name the larger one. Selection: enter the item's label.
Reply: A
(A: 4900 nM, B: 130 nM)

====

Molecular target: Adenosine receptor A1 (Homo sapiens, UniProt P30542)
Sequence (P30542 whole entry): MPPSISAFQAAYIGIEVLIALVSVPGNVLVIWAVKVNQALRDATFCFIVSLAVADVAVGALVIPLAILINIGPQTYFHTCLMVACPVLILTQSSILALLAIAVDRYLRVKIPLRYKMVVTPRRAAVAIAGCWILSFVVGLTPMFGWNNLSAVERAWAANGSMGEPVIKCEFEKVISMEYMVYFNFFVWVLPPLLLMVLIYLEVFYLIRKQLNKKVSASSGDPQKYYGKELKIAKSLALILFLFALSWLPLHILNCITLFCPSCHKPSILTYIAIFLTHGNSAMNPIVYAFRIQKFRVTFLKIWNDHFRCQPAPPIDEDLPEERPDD
quantity_measured: Ki (nM)
Write the answer as a number in nM, unit excluded.

Ask: Please provide the recorded Ki for CCOC(=O)c1nc(N)c(=O)n(-c2ccccc2)n1 , tested on Adenosine receptor A1 (Homo sapiens, UniProt P30542).
Reply: 2200
